Data provenance is patent US20230141198A1.

This listing pairs compounds with measured pEC50.
System name: UniProt P35372
Sequence (P35372 whole entry): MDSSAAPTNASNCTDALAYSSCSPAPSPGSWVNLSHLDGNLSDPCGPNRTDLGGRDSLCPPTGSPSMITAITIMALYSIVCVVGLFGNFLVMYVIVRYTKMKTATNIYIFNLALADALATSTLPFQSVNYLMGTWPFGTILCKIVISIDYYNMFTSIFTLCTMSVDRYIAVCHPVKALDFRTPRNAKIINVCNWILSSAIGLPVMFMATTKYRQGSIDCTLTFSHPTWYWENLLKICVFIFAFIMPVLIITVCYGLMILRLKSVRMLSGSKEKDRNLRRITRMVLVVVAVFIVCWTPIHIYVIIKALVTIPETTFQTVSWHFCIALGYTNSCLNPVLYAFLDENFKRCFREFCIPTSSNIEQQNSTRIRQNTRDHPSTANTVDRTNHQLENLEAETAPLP
Assay explanation: Opioid receptor function test (agonist activity, Lance Ultra cAMP kit), μ receptor
Scale: negative log10 of molar concentration, which is what pEC50 denotes.

In the examples that follow, each entry is paired with its recorded pEC50.
Cc1c2c(nn1C1CCC1)C[C@]13CCN(CC4CC4)[C@H](Cc4ccc(O)cc41)[C@]3(O)C2	7.80
Cc1nn(C2CCN(C)CC2)c2c1C[C@@]1(O)[C@H]3Cc4ccc(O)cc4[C@@]1(CCN3CC1CC1)C2	7.49

In plain terms, Cc1c2c(nn1C1CCN(C)CC1)C[C@]13CCN(CC4CC4)[C@H](Cc4ccc(O)cc41)[C@]3(O)C2 has a documented pEC50 of 7.28

The compound identified as Cc1c2c(nn1C(C)C)C[C@]13CCN(CC4CC4)[C@H](Cc4ccc(O)cc41)[C@]3(O)C2 registered its pEC50 at 7.82

----------
System name: human opioid δ receptor (Homo sapiens, UniProt P41143)
Construct: host or cells: CHO cells
Sequence (P41143 whole entry): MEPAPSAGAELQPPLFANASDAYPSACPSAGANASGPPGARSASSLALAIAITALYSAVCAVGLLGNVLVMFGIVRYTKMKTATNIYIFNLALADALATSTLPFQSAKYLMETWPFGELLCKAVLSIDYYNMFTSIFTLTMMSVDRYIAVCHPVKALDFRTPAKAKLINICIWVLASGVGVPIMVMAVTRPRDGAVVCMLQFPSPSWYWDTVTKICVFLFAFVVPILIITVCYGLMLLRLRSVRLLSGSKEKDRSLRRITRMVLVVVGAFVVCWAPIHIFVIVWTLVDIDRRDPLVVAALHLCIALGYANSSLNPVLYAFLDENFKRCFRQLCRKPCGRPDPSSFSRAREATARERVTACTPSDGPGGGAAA
Assay explanation: Opioid receptor function test (agonist activity, Lance Ultra cAMP kit), δ receptor
Type: cell-based
Experimental parameters: maximum reaction relative to control drug SNC 80 taken as 100%
Measured parameter: Emax
A complete answer gives the number followed by the unit.

Cc1nn(C2CC2)c2c1C[C@@]1(O)[C@H]3Cc4ccc(O)cc4[C@@]1(CCN3CC1CC1)C2	39%
Cc1nn(C(C)C)c2c1C[C@@]1(O)[C@H]3Cc4ccc(O)cc4[C@@]1(CCN3CC1CC1)C2	95%
Cc1c2c(nn1C1CC1)C[C@]13CCN(CC4CC4)[C@H](Cc4ccc(O)cc41)[C@]3(O)C2	99%
Cc1nn(C2CCN(C)CC2)c2c1C[C@@]1(O)[C@H]3Cc4ccc(O)cc4[C@@]1(CCN3CC1CC1)C2	112%
Cc1c2c(nn1C(C)C)C[C@]13CCN(CC4CC4)[C@H](Cc4ccc(O)cc41)[C@]3(O)C2	107%

Entry Cc1c2c(nn1-c1ccccc1)C[C@]13CCN(CC4CC4)[C@H](Cc4ccc(O)cc41)[C@]3(O)C2 — recorded Emax = 86%

Entry Cc1nn(-c2nccs2)c2c1C[C@@]1(O)[C@H]3Cc4ccc(O)cc4[C@@]1(CCN3CC1CC1)C2 — recorded Emax = 54%

----------
System name: human opioid κ receptor (Homo sapiens)
Construct: host or cells: CHO cells
Sequence (P41145 whole entry): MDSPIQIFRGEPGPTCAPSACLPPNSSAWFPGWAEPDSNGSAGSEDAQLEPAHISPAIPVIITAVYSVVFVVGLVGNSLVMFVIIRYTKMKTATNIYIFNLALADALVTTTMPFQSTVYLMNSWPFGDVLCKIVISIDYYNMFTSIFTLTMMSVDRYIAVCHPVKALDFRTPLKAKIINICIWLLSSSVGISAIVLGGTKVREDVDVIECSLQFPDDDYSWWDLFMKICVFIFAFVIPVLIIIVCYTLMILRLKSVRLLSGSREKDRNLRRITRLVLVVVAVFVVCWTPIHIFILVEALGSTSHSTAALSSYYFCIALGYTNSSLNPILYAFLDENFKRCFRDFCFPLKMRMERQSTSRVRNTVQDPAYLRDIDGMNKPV
Assay explanation: Opioid receptor function test (agonist activity, Lance Ultra cAMP kit), κ receptor
Format: cell-based
Experimental parameters: maximum reaction relative to control drug U-69593 taken as 100%
# key: entry, value: Emax
Number only, in %; omit the unit.

Cc1nn(-c2ccccc2)c2c1C[C@@]1(O)[C@H]3Cc4ccc(O)cc4[C@@]1(CCN3C)C2	14
Cc1c2c(nn1C1CCCCC1)C[C@]13CCN(CC4CC4)[C@H](Cc4ccc(O)cc41)[C@]3(O)C2	13
Cc1c2c(nn1C(C)C)C[C@]13CCN(CC4CC4)[C@H](Cc4ccc(O)cc41)[C@]3(O)C2	35

With those in mind, consider the next molecule.
Recorded result, Cc1c2c(nn1-c1ccccc1)C[C@]13CCN(CC4CC4)[C@H](Cc4ccc(O)cc41)[C@]3(O)C2 , Emax: 12

----------
Let's look at some molecules and their measured Emax.
System name: human opioid δ receptor (Homo sapiens)
Construct: host or cells: CHO cells
Assay explanation: Opioid receptor function test (agonist activity, Lance Ultra cAMP kit), δ receptor
Type: cell-based
Experimental parameters: maximum reaction relative to control drug SNC 80 taken as 100%
Kindly answer with a numeric value in %, unit omitted.

// worked examples, Emax included
Cc1[nH]nc2c1C[C@@]1(O)[C@H]3Cc4ccc(O)cc4[C@@]1(CCN3CC1CC1)C2	42
Cc1nn(-c2ccccn2)c2c1C[C@@]1(O)[C@H]3Cc4ccc(O)cc4[C@@]1(CCN3CC1CC1)C2	51
Cc1nn(C2CCSCC2)c2c1C[C@@]1(O)[C@H]3Cc4ccc(O)cc4[C@@]1(CCN3CC1CC1)C2	112
Cc1c2c(nn1C1CCCCC1)C[C@]13CCN(CC4CC4)[C@H](Cc4ccc(O)cc41)[C@]3(O)C2	108
Cc1c2c(nn1C1CCSCC1)C[C@]13CCN(CC4CC4)[C@H](Cc4ccc(O)cc41)[C@]3(O)C2	116

Emax reading for Cc1nn(C2CCCC2)c2c1C[C@@]1(O)[C@H]3Cc4ccc(O)cc4[C@@]1(CCN3CC1CC1)C2 : 101

Quick note, Emax for Cc1nn(-c2ccncc2)c2c1C[C@@]1(O)[C@H]3Cc4ccc(O)cc4[C@@]1(CCN3CC1CC1)C2 landed at 101
